- Tested on: Streptococcus pneumoniae 49619 (SPN 49619)
- test: Minimum Inhibitory Concentration (MIC) determination, agar with 5% sheep blood
- Type: cell-based
- experimentalContext: Mueller Hinton agar containing 5% sheep blood
measureName: MIC (µg/mL)

CC(=O)NC[C@H]1CN(c2ccc(N3CCC(C)(F)CC3)c(F)c2)C(=O)O1 2
CC(=S)NC[C@H]1CN(c2ccc(N3CCC(C#N)(Nc4ccc(C#N)cc4)CC3)c(F)c2)C(=O)O1 0.8

I = CC(=O)NC[C@H]1CN(c2ccc(N3CCC(F)(CN=[N+]=[N-])CC3)c(F)c2)C(=O)O1
II = CC(=O)NC[C@H]1CN(c2ccc(N3CCC4(CC3)C[C@@H]4C#N)c(F)c2)C(=O)O1
// query For the pair I and II , which entry has the numerically smaller recorded MIC? Mark your answer with the label of the selected entry.
// result II

* * *

- Tested on: Methicilin resistant Staphylococcus epidermidis 118 (MRSE 118)
- test: Minimum Inhibitory Concentration (MIC) determination, agar dilution
- Assay type: cell-based
- experimentalContext: Mueller Hinton agar, 24 hrs at 35° C.
measureName: MIC (µg/mL)

Use the examples below as a reference point.
CCOCC1(F)CCN(c2ccc(N3C[C@H](CNC(C)=O)OC3=O)cc2F)CC1 0.5
CC(=O)NC[C@H]1CN(c2ccc(N3CCC(O)(CN=[N+]=[N-])CC3)c(F)c2)C(=O)O1 1
CC(=O)NC[C@H]1CN(c2cc(F)c(N3CCC(O)(CN=[N+]=[N-])CC3)c(F)c2)C(=O)O1 1

a = CC(=O)NC[C@H]1CN(c2ccc(N3CCC4(CC3)C[C@H]4C#N)c(F)c2)C(=O)O1
b = CC(=O)NC[C@H]1CN(c2ccc(N3CCC(O)(C#N)CC3)c(F)c2)C(=O)O1
c = COCC1(O)CCN(c2ccc(N3C[C@H](CNC(C)=O)OC3=O)cc2)CC1
d = CC(=O)NC[C@H]1CN(c2ccc(N3CCC4(CC3)COCO4)c(F)c2)C(=O)O1
// query With regard to MIC, arrange the entries in ascending order, please. Field: ranking. Enter the labels in the order requested.
// result b, a, d, c

* * *

- Test system: Streptococcus pyogenes 801 (SPY 801)
- test: Minimum Inhibitory Concentration (MIC) determination, agar with 5% sheep blood
- Format: cell-based
- experimentalContext: Mueller Hinton agar containing 5% sheep blood
- Method: Overnight grown cultures of Methicilin resistant Staphylococcus aureus 32 (MRSA 32), Methicilin resistant Staphylococcus epidermidis 118 (MRSE 118), Vancomycin resistant enterococci 303 (VRE 303) in Tryptic Soya broth were diluted in Mueller Hinton Broth to give optical density matching with MacFarland tube 0.5 standard. Cultures were further diluted 1:10 in Mueller Hinton broth. […] These plates were incubated for 24 hrs at 35° C. and MIC results recorded. […]
measureName: MIC (µg/mL)

compound	u	obsValue
CC(=O)NC[C@H]1CN(c2ccc(N3CCC4(CC3)NCC[S+]4[O-])c(F)c2)C(=O)O1 (stereo partly drawn)	µg/mL	2
CCOCC1(F)CCN(c2ccc(N3C[C@H](CNC(C)=O)OC3=O)cc2F)CC1	µg/mL	4
CC(=O)NC[C@H]1CN(c2ccc(N3CCC(F)(CI)CC3)c(F)c2)C(=O)O1	µg/mL	1
CC(=O)NC[C@H]1CN(c2ccc(N3CCC4(CC3)COCO4)c(F)c2)C(=O)O1	µg/mL	2
CC(=O)NC[C@H]1CN(c2ccc(N3CCC4(CC3)C[C@@H]4C#N)c(F)c2)C(=O)O1	µg/mL	0.5
CC(=O)NC[C@H]1CN(c2ccc(N3CCC(F)(CNS(C)(=O)=O)CC3)c(F)c2)C(=O)O1	µg/mL	1
CC(=O)NC[C@H]1CN(c2ccc(N3CCC(F)(CC#N)CC3)c(F)c2)C(=O)O1	µg/mL	1
CC(=O)NC[C@H]1CN(c2ccc(N3CCC4(CC3)C[S+]([O-])CCO4)c(F)c2)C(=O)O1 (stereo partly drawn)	µg/mL	4

A = CS(=O)(=O)OC[C@H]1CN(c2cc(F)c(N3CCC(O)CC3)c(F)c2)C(=O)O1
B = CC(=O)NC[C@H]1CN(c2ccc(N3CCC(F)(CNC(C)=O)CC3)c(F)c2)C(=O)O1
// query So which one has the bigger MIC here, A or B ? Mark your answer with the label of the selected entry.
// result A
